Form field: Growth Inhibition (one value per entry).
- System: Plasmodium falciparum
- Method Description: MMV: Measure of pLDH activity as indication of parasite viability. Gametocytogenesis of 3D7 Plasmodium falciparum strain was induced in vitro and asexual parasites were depleted with N-acetylglucosamine. Gametocytes were treated with dihydroartemisinin, epoxomicin, methylene blue, primaquine, puromycin or chloroquine in 96-well plates and the pLDH activity was evaluated using a modified Makler protocol. Mosquito infectivity was measured by the standard membrane feeding assay.
- Type: functional
- Design: concentration or dose not given beside the values

- Compound: "CCOC(=O)c1cnc2ccc(Cl)cc2c1NCCCN(C)C"
  Measured Target: "Plasmodium falciparum"
  Growth Inhibition / %: 5.776
- Compound: "COc1cccc(NC(=O)Cn2c(C)c(C#N)c3ccccc32)c1"
  Measured Target: "Plasmodium falciparum"
  Growth Inhibition / %: 15.89
- Compound: "CC1(c2ccccc2)Nc2ccccc2-c2nc3ccccc3n21 (stereo not drawn)"
  Measured Target: "Plasmodium falciparum"
  Growth Inhibition / %: 8.0798
- Compound: "COc1ccc(C(=O)Nc2nonc2-c2ccc(OC)c(OC)c2)cc1Cl"
  Measured Target: "Plasmodium falciparum"
  Growth Inhibition / %: 7.9826
- Compound: "Cc1ccc(Cn2c(N3CCC(C(=O)NCc4cccs4)CC3)nc3ccccc32)cc1"
  Measured Target: "Plasmodium falciparum"
  Growth Inhibition / %: -1.5746
- Compound: "Nc1ccc(-c2nc3cc(Oc4ccc(Oc5ccc6[nH]c(-c7ccc(N)cc7)nc6c5)cc4)ccc3[nH]2)cc1"
  Measured Target: "Plasmodium falciparum"
  Growth Inhibition / %: 21.5644
- Compound: "O=C(NCc1ccco1)C1CCN(S(=O)(=O)c2ccc(Cl)cc2)CC1"
  Measured Target: "Plasmodium falciparum"
  Growth Inhibition / %: 3.8942
- Compound: "O=C1CC(O)(C(F)(F)C(F)(F)F)Oc2ccccc21 (stereo not drawn)"
  Measured Target: "Plasmodium falciparum"
  Growth Inhibition / %: 1.4958

###

- System: Plasmodium falciparum
- Method Description: MMV: Measure of pLDH activity as indication of parasite viability. Gametocytogenesis of 3D7 Plasmodium falciparum strain was induced in vitro and asexual parasites were depleted with N-acetylglucosamine. Gametocytes were treated with dihydroartemisinin, epoxomicin, methylene blue, primaquine, puromycin or chloroquine in 96-well plates and the pLDH activity was evaluated using a modified Makler protocol. Mosquito infectivity was measured by the standard membrane feeding assay.
- Assay type: functional
- Design: concentration or dose not given beside the values

- Molecule: "Cc1ccc(S(=O)(=O)c2c(COC(=O)c3cccc(C)c3)c(-c3ccccc3)nn2C)cc1"
  Growth Inhibition, %: 4.058
- Molecule: "O=C(NC1CCN(Cc2ccccc2)CC1)c1cc(-c2ccncc2)nc2ccc(Cl)cc12"
  Growth Inhibition, %: 12.9682
- Molecule: "CC(C)(C)c1ccc(O)c(CNC2CCCCC2)c1"
  Growth Inhibition, %: 30.335
- Molecule: "CCN1CCCC1CNc1[nH]cnc2c3cc(Cl)ccc3nc1-2 (stereo not given)"
  Growth Inhibition, %: 8.5536
- Molecule: "CCOC(=O)c1c(C)n(-c2ccc(Cl)cc2)c2ccc(OC(=O)C=Cc3ccccc3)cc12"
  Growth Inhibition, %: -3.2706
- Molecule: "CCN1CCN(c2cc(C)c3cc(NC(=O)c4ccc(OC)c(OC)c4)ccc3n2)CC1"
  Growth Inhibition, %: 12.8102
- Molecule: "CCOc1c(Cl)cc(CNC(C)C(O)c2ccccc2)cc1OC (stereo not given)"
  Growth Inhibition, %: 22.4902
- Molecule: "CCOc1cc2c(cc1OCC)C(c1cc(C)c(O)c(C)c1)NCC2.Cl (stereo not given)"
  Growth Inhibition, %: 25.854
- Molecule: "Oc1c(CN2CCN(c3ccccc3F)CC2)cc(Br)c2cccnc12"
  Growth Inhibition, %: 75.8386
- Molecule: "COCCNC(=O)c1ccc(OC2CCN(Cc3ccc(F)c(F)c3)CC2)c(Cl)c1"
  Growth Inhibition, %: 5.6964

###

Form field: Growth Inhibition (one value per entry).
- Test system: Plasmodium falciparum
- Method Description: MMV: Measure of pLDH activity as indication of parasite viability. Gametocytogenesis of 3D7 Plasmodium falciparum strain was induced in vitro and asexual parasites were depleted with N-acetylglucosamine. Gametocytes were treated with dihydroartemisinin, epoxomicin, methylene blue, primaquine, puromycin or chloroquine in 96-well plates and the pLDH activity was evaluated using a modified Makler protocol. Mosquito infectivity was measured by the standard membrane feeding assay.
- Format: functional
- Parameters: concentration or dose not given beside the values
Recorded Endpoint: Growth Inhibition (%)

- Compound: "Nc1ccn([C@@H]2O[C@H](CO)[C@@H](O)[C@H]2O)c(=O)n1 [CYTIDINE]"
  Measured Target: "Plasmodium falciparum"
  Recorded Endpoint: "Growth Inhibition"
  Reported Measurement: 13.5248
- Compound: "CCOc1ccc(C2N(C)c3ccccc3N2C)cc1"
  Measured Target: "Plasmodium falciparum"
  Recorded Endpoint: "Growth Inhibition"
  Reported Measurement: 9.8332
- Compound: "CCN(CC)CCCNc1ccnc2cc3ccccc3cc12"
  Measured Target: "Plasmodium falciparum"
  Recorded Endpoint: "Growth Inhibition"
  Reported Measurement: 22.6902
- Compound: "COc1ccc(CNC2CCN(c3ccc(NC(=O)c4cccc(Cl)c4)cc3)CC2)cc1OC"
  Measured Target: "Plasmodium falciparum"
  Recorded Endpoint: "Growth Inhibition"
  Reported Measurement: 12.3618
- Compound: "N=c1c2ccccc2nnn1-c1cccc(C(F)(F)F)c1"
  Measured Target: "Plasmodium falciparum"
  Recorded Endpoint: "Growth Inhibition"
  Reported Measurement: 20.848
- Compound: "CCN(Cc1ccccc1)C1CCN(Cc2cc(Br)ccc2O)CC1.O=C(O)C(=O)O"
  Measured Target: "Plasmodium falciparum"
  Recorded Endpoint: "Growth Inhibition"
  Reported Measurement: 47.2545
- Compound: "Cc1cc(Nc2ccc(C)c(Cl)c2)n2nc(C(F)(F)F)nc2n1"
  Measured Target: "Plasmodium falciparum"
  Recorded Endpoint: "Growth Inhibition"
  Reported Measurement: 1.818
- Compound: "COc1ccc(OC)c(C2C3=C(CC(C)(C)CC3=O)N(c3ccc(Cl)c(Cl)c3)C3=C2C(=O)CC(C)(C)C3)c1"
  Measured Target: "Plasmodium falciparum"
  Recorded Endpoint: "Growth Inhibition"
  Reported Measurement: 21.894
- Compound: "COc1ccc(-c2nonc2NC(=O)c2cccc(C)c2)cc1OC"
  Measured Target: "Plasmodium falciparum"
  Recorded Endpoint: "Growth Inhibition"
  Reported Measurement: 3.7758
- Compound: "O=C(c1ccccc1F)N(Cc1ccc(Cl)cc1)c1ccccn1"
  Measured Target: "Plasmodium falciparum"
  Recorded Endpoint: "Growth Inhibition"
  Reported Measurement: 9.2554
- Compound: "CCN(CC)CCn1c(=N)n(CC(O)c2ccc(Cl)c(Cl)c2)c2ccccc21.Cl (stereo not drawn)"
  Measured Target: "Plasmodium falciparum"
  Recorded Endpoint: "Growth Inhibition"
  Reported Measurement: 75.2902
- Compound: "Cc1sc(NC(=O)c2ccco2)c(C(c2cccnc2)N2CCC(Cc3ccccc3)CC2)c1C (stereo not drawn)"
  Measured Target: "Plasmodium falciparum"
  Recorded Endpoint: "Growth Inhibition"
  Reported Measurement: 4.6056
- Compound: "COc1cccc(NC(=O)[C@H](C(C)C)n2c(=O)[nH]c3ccccc3c2=O)c1"
  Measured Target: "Plasmodium falciparum"
  Recorded Endpoint: "Growth Inhibition"
  Reported Measurement: 63.4258
- Compound: "CCc1ccc(Nc2cc(C)c3ccc(O)cc3n2)cc1.Cl"
  Measured Target: "Plasmodium falciparum"
  Recorded Endpoint: "Growth Inhibition"
  Reported Measurement: 27.662
- Compound: "CCN1CCN(Cc2ccc(NC(=O)c3cc4ccc5cccnc5c4[nH]3)cc2)CC1"
  Measured Target: "Plasmodium falciparum"
  Recorded Endpoint: "Growth Inhibition"
  Reported Measurement: 4.9364
- Compound: "Cc1cc(C)c2c(c1)OCN(Cc1ccccc1Cl)C2"
  Measured Target: "Plasmodium falciparum"
  Recorded Endpoint: "Growth Inhibition"
  Reported Measurement: 32.69
- Compound: "O=C(NC1CCN(Cc2ccccc2)CC1)c1cc2nc(-c3ccc(Cl)s3)cc(C(F)(F)F)n2n1"
  Measured Target: "Plasmodium falciparum"
  Recorded Endpoint: "Growth Inhibition"
  Reported Measurement: 6.5116
- Compound: "CCC1(C)CC(CCNCc2ccccc2O)(c2ccc(C)cc2)CCO1 (stereo not drawn)"
  Measured Target: "Plasmodium falciparum"
  Recorded Endpoint: "Growth Inhibition"
  Reported Measurement: 26.52
- Compound: "COc1ccc2nc(C)cc(Nc3ccc(Cl)cc3)c2c1"
  Measured Target: "Plasmodium falciparum"
  Recorded Endpoint: "Growth Inhibition"
  Reported Measurement: 15.7236
- Compound: "Cc1cc(Nc2ccc(OCc3ccccc3)cc2)nc2cc(O)ccc12"
  Measured Target: "Plasmodium falciparum"
  Recorded Endpoint: "Growth Inhibition"
  Reported Measurement: 36.4644
- Compound: "Clc1ccc2c(N3CCCC3)ccnc2c1"
  Measured Target: "Plasmodium falciparum"
  Recorded Endpoint: "Growth Inhibition"
  Reported Measurement: 18.4524
- Compound: "Cc1ccc(-c2cc(C(=O)Nc3ccc(S(=O)(=O)N4CCCCC4)cc3)[nH]n2)c(O)c1"
  Measured Target: "Plasmodium falciparum"
  Recorded Endpoint: "Growth Inhibition"
  Reported Measurement: 28.7504
- Compound: "CCOC(=O)c1cnc2ccc(OC)cc2c1NCc1ccccc1"
  Measured Target: "Plasmodium falciparum"
  Recorded Endpoint: "Growth Inhibition"
  Reported Measurement: 11.9674
- Compound: "COc1ccc(NC(=O)C2c3ccccc3C(=O)N(CC(C)C)C2c2cccs2)cc1 (stereo not drawn)"
  Measured Target: "Plasmodium falciparum"
  Recorded Endpoint: "Growth Inhibition"
  Reported Measurement: 28.379
- Compound: "Cl.OC(CNCc1ccccc1)Cn1c2ccccc2c2ccccc21 (stereo not drawn)"
  Measured Target: "Plasmodium falciparum"
  Recorded Endpoint: "Growth Inhibition"
  Reported Measurement: 33.103
- Compound: "CCOc1ccccc1CN1CCc2nc3cc(C(C)(C)C)nn3c(O)c2C1"
  Measured Target: "Plasmodium falciparum"
  Recorded Endpoint: "Growth Inhibition"
  Reported Measurement: 8.4768
- Compound: "O=C1c2ccc3c4c(ccc(c24)C(=O)N1CCCCO)C(=O)N(CCCCO)C3=O"
  Measured Target: "Plasmodium falciparum"
  Recorded Endpoint: "Growth Inhibition"
  Reported Measurement: 33.201
- Compound: "Cc1ccc(C2CC(C(F)(F)F)n3nc(C(=O)N4CCN(C(c5ccccc5)c5ccccc5)CC4)cc3N2)cc1 (stereo not drawn)"
  Measured Target: "Plasmodium falciparum"
  Recorded Endpoint: "Growth Inhibition"
  Reported Measurement: 4.7565
- Compound: "CCN(CC)CCNc1ccnc2cc(Cl)ccc12"
  Measured Target: "Plasmodium falciparum"
  Recorded Endpoint: "Growth Inhibition"
  Reported Measurement: 9.9324
- Compound: "O=C(NCC(c1ccsc1)N1CCCCCC1)c1ccc(C(F)(F)F)cc1 (stereo not drawn)"
  Measured Target: "Plasmodium falciparum"
  Recorded Endpoint: "Growth Inhibition"
  Reported Measurement: -3.1098
- Compound: "Cc1ccc(Nc2nc(NCCO)c3ccccc3n2)cc1C"
  Measured Target: "Plasmodium falciparum"
  Recorded Endpoint: "Growth Inhibition"
  Reported Measurement: 11.5812
- Compound: "O=C(Nc1nc(-c2ccccn2)cs1)c1ccccc1Br"
  Measured Target: "Plasmodium falciparum"
  Recorded Endpoint: "Growth Inhibition"
  Reported Measurement: 29.0858
- Compound: "CN(C)c1ccc(C(O)(c2ccc(N(C)C)cc2)c2ccc(N(C)C)cc2)cc1 [METHYLROSANILINE]"
  Measured Target: "Plasmodium falciparum"
  Recorded Endpoint: "Growth Inhibition"
  Reported Measurement: 76.3425
- Compound: "CCOc1cccc(C(=O)Nc2ccc(-c3nc4ccccc4[nH]3)cc2)c1"
  Measured Target: "Plasmodium falciparum"
  Recorded Endpoint: "Growth Inhibition"
  Reported Measurement: 7.5178
- Compound: "CCCCCCOC(=O)C1=C(C)NC(=O)NC1c1ccccc1F (stereo not drawn)"
  Measured Target: "Plasmodium falciparum"
  Recorded Endpoint: "Growth Inhibition"
  Reported Measurement: 6.2916
- Compound: "O=C(O)C1Cc2c([nH]c3ccccc23)C(c2ccc(Cl)cc2Cl)N1 (stereo not drawn)"
  Measured Target: "Plasmodium falciparum"
  Recorded Endpoint: "Growth Inhibition"
  Reported Measurement: 8.0448
- Compound: "CC(=O)Nc1nnc(SCc2c(C)cc(C(C)(C)C)cc2C)s1"
  Measured Target: "Plasmodium falciparum"
  Recorded Endpoint: "Growth Inhibition"
  Reported Measurement: -6.288
- Compound: "CCOc1cc2c(cc1OCC)C(c1cc(OC)c(O)cc1Cl)NCC2 (stereo not drawn)"
  Measured Target: "Plasmodium falciparum"
  Recorded Endpoint: "Growth Inhibition"
  Reported Measurement: 24.0654
- Compound: "Cc1c(C)n(CC(O)CNC2CCCCC2C)c2ccccc12 (stereo not drawn)"
  Measured Target: "Plasmodium falciparum"
  Recorded Endpoint: "Growth Inhibition"
  Reported Measurement: 42.7668
- Compound: "COc1ccccc1CNC(=O)CCn1c(=O)[nH]c2ccccc2c1=O"
  Measured Target: "Plasmodium falciparum"
  Recorded Endpoint: "Growth Inhibition"
  Reported Measurement: -1.4414
- Compound: "Cc1ccc(N2C3c4ccccc4N(S(=O)(=O)c4ccc(C)cc4)C2c2ccccc2N3S(=O)(=O)c2ccc(C)cc2)cc1"
  Measured Target: "Plasmodium falciparum"
  Recorded Endpoint: "Growth Inhibition"
  Reported Measurement: -2.5084
- Compound: "CCCCCCc1cc(O)c2c3c(c(=O)oc2c1)CCC(C)C3 (stereo not drawn)"
  Measured Target: "Plasmodium falciparum"
  Recorded Endpoint: "Growth Inhibition"
  Reported Measurement: 26.585
- Compound: "O=C(NC1CCN(Cc2ccccc2)CC1)c1cc(-c2cccnc2)nc2ccc(Cl)cc12"
  Measured Target: "Plasmodium falciparum"
  Recorded Endpoint: "Growth Inhibition"
  Reported Measurement: 12.1742
